Answer each item with its documented NK Cell Assay IC50 (IFNgamma secretion by human NK cells stimulated with IL-23 and IL-18).
ASSAYED_TARGET: T1, interleukin-23 receptor (IL-23R), human (human, UniProt Q5VWK5 24-629)
T1 sequence (looked up): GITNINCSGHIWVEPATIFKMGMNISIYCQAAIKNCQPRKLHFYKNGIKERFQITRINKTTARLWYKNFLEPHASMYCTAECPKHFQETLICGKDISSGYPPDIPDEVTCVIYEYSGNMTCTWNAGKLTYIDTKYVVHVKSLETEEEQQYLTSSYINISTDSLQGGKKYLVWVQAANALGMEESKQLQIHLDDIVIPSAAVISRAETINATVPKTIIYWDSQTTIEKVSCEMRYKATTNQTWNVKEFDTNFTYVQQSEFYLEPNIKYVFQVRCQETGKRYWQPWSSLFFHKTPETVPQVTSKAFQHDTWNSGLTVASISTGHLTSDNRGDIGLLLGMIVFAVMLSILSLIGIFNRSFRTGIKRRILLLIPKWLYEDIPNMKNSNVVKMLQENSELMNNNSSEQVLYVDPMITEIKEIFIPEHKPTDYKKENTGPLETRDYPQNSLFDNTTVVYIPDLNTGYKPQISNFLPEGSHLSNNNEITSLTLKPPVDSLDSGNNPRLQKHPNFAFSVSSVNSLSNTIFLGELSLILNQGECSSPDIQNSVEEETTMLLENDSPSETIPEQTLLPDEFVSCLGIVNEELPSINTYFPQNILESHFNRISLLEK
EXPERIMENT_SUMMARY: cell-based or functional assay
Bridges are numbered along the chain shown (N, C = ends). [ ]: non-standard residue; d: D form. Trp(7-Ph) = N[C@@H](Cc1c[nH]c2c(-c3ccccc3)cccc12)C(=O)O; 2Nal = N[C@@H](Cc1ccc2ccccc2c1)C(=O)O; AEF = NCCOc1ccc(C[C@H](N)C(=O)O)cc1; αMeK = C[C@](N)(CCCCN)C(=O)O; Abu = CC[C@H](N)C(=O)O
I'd appreciate it if you included the unit after the number.

Measured NK Cell Assay IC50 (IFNgamma secretion by human NK cells stimulated with IL-23 and IL-18) of XNTXKXXXXKNL (Ac-[Pen]-N-T-[W(7-Ph)]-[Lys(Ac)]-[Pen]-Phe[4-(2-aminoethoxy)]-[3Quin]-[a-MeLys]-[Lys(Ac)]-N-[(D)Leu]-NH2; N-terminal acetyl, C-terminal amide; cyclized via Pen-Pen disulfide bond) [Peptide No. 16 (SEQ ID No. 16)] : 2.9 nM

Measured NK Cell Assay IC50 (IFNgamma secretion by human NK cells stimulated with IL-23 and IL-18) of XNTXKXXXXKNL (Ac-[Pen]-N-T-[W(7-Ph)]-[Lys(Ac)]-[Pen]-Phe[4-(2-aminoethoxy)]-[2-Nal]-[a-MeLys]-[Lys(Ac)]-N-[(D)Leu]-NH2; N-terminal acetyl, C-terminal amide; cyclized via Pen-Pen disulfide bond) [Peptide No. 1 (SEQ ID No. 1)] : 4.3 nM

Measured NK Cell Assay IC50 (IFNgamma secretion by human NK cells stimulated with IL-23 and IL-18) of Ac-[Abu]QT[Trp(7-Ph)]K(Ac)C[AEF][2Nal][αMeK]K(Ac)N[dL]-NH2 (thioether 1-6) [Peptide No. 18 (SEQ ID No. 18)] : 6.28 nM

Measured NK Cell Assay IC50 (IFNgamma secretion by human NK cells stimulated with IL-23 and IL-18) of XNTXKXXXXENK (Ac-[Pen]-N-T-[W(7-Ph)]-[Lys(Ac)]-[Pen]-Phe[4-(2-aminoethoxy)]-[3Quin]-[THP]-E-N-[(D)Lys]-NH2; N-terminal acetyl, C-terminal amide; cyclized via Pen-Pen disulfide bond) [Peptide No. 13 (SEQ ID No. 13)] : 1.55 nM

Measured NK Cell Assay IC50 (IFNgamma secretion by human NK cells stimulated with IL-23 and IL-18) of XNTXKXXXXKNK (Ac-[Pen]-N-T-[W(7-Ph)]-[Lys(Ac)]-[Pen]-Phe[4-(2-aminoethoxy)]-[3Quin]-[a-MeLys]-[Lys(Ac)]-N-[(D)Lys]-NH2; N-terminal acetyl, C-terminal amide; cyclized via Pen-Pen disulfide bond) [Peptide No. 14 (SEQ ID No. 14)] : 2.41 nM

Measured NK Cell Assay IC50 (IFNgamma secretion by human NK cells stimulated with IL-23 and IL-18) of XNTXKXXXXENL (Ac-[Pen]-N-T-[W(7-Ph)]-[Lys(Ac)]-[Pen]-Phe[4-(2-aminoethoxy)]-[3Quin]-[THP]-E-N-[(D)Leu]-NH2; N-terminal acetyl, C-terminal amide; cyclized via Pen-Pen disulfide bond) [Peptide No. 15 (SEQ ID No. 15)] : 2.44 nM
